Biological target: PAR2 (HT-29 cells) (Homo sapiens, UniProt P55085)
Construct: host or cells: HT-29
Sequence (P55085 26-397): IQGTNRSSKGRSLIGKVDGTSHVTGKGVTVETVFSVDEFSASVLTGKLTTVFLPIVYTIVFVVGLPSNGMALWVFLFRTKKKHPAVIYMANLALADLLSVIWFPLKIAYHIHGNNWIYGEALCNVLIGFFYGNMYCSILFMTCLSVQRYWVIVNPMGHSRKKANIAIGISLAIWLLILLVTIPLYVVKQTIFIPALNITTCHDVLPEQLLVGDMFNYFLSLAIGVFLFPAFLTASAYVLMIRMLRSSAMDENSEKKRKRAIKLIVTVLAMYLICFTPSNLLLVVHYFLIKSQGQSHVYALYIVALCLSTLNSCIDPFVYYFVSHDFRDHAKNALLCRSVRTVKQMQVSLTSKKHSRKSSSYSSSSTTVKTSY
Experiment: Ca FLIPR TETRA assay, ANTAGONIST mode, activator 3.1 U/mL trypsin
Type: cell-based
Conditions: HT-29 cells, activator 3.1 U/mL trypsin; maximal antagonist concentration per Method (A: 0.1, 1 or 2 μM; B: 50 μM)
Procedure: Protocol for Testing PAR2 Compounds in ANTAGONIST Mode Using the Ca FLIPR^TETRA Assay (384 Well). […] A first read was performed to determine whether the test compounds on their own can activate Ca^2+ responses. The cells were incubated with the compounds for 30 min at r. t. and then read in ANTAGONIST mode in the same plate by stimulating with 6.2 uL of a fixed concentration of the activator: final concentrations 8 μM SLIGKV, 1 U/mL Thrombin, 3.1 U/mL trypsin, or 0.6 μM UTP.
Recorded IC50 for the following compounds

{"Compound": "CC(C)(C)c1cc(-c2ccc(F)cc2)nc2cc(C(=O)N3CCNC(=O)C3(C)C)oc12 [Example I-149]", "IC50 [nM]": 9.6}
{"Compound": "CC1(c2cc(-c3ccc(F)cc3)nc3cc(C(=O)N4CCN(C(=O)[C@H]5CCCO5)CC4(C)C)oc23)CC1 [Example I-30]", "IC50 [nM]": 14}
{"Compound": "CC(C)c1cc(-c2ccc(F)cc2)nc2cc(C(=O)N3CCN(C(=O)[C@@H](C)O)C[C@H]3C)oc12 [Example I-98]", "IC50 [nM]": 7000}
{"Compound": "C=C(C)c1cc(-c2ccc(F)cc2)nc2cc(C(=O)N3CCN(C(=O)[C@H]4C[C@](O)(C(F)(F)F)C4)CC3(C)C)oc12 [Example I-143]", "IC50 [nM]": 2.2}
{"Compound": "CC(C)c1cc(-c2ccc(F)cc2)nc2cc(C(=O)N3CCN(C(=O)c4ccccc4)CC3(C)C)oc12 [Example I-11]", "IC50 [nM]": 3.5}
{"Compound": "CC(C)c1cc(-c2ccc(F)cc2)nc2cc(C(=O)N3CCN(C(=O)[C@@H](C)O)C[C@@H]3C)oc12 [Example I-103]", "IC50 [nM]": 8500}
{"Compound": "CCCCC(O)C(=O)N1CCN(C(=O)c2cc3nc(-c4ccc(F)cc4)cc(C4(C)CC4)c3o2)C(C)(C)C1 (stereo not drawn) [Example I-34]", "IC50 [nM]": 5.9}
{"Compound": "CC(=O)N1CCN(C(=O)c2cc3nc(-c4ccc(F)cc4)cc(C(C)C)c3o2)C(C)(C)C1 [Example I-24]", "IC50 [nM]": 44}
{"Compound": "CC(C)c1cc(-c2ccc(F)cc2)nc2cc(C(=O)N3CCN(C(=O)[C@@H](C)O)CC3)oc12 [Example I-93]", "IC50 [nM]": 16000}
{"Compound": "CC(C)c1cc(-c2ccc(F)cc2)nc2cc(C(=O)N3CCN(C(=O)[C@H](O)CC(C)(C)C)C[C@H]3C)oc12 [Example I-99]", "IC50 [nM]": 430}
{"Compound": "CO[C@@H](C(=O)N1CCN(C(=O)c2cc3nc(-c4ccc(F)cc4)cc(C(C)C)c3o2)C(C)(C)C1)c1ccccc1 [Example I-66]", "IC50 [nM]": 15}
{"Compound": "CC(C)C[C@@H](O)C(=O)N1CCN(C(=O)c2cc3nc(-c4ccc(F)cc4)cc(C4(C)CC4)c3o2)C[C@@H]1C [Example I-113]", "IC50 [nM]": 2}
{"Compound": "[2H]C([2H])([2H])N1CCN(C(=O)c2cc3nc(-c4ccc(F)c(Cl)c4)cc(C(C)(C)C)c3o2)C(C)(C)C1=O [Example I-239]", "IC50 [nM]": 5.4}
{"Compound": "CC(C)c1cc(-c2ccc(F)cc2)nc2cc(C(=O)N3CCN(C(=O)C(C)(O)C(F)(F)F)CC3(C)C)oc12 (stereo not drawn) [Example I-68]", "IC50 [nM]": 26}
{"Compound": "CC(C)(C)c1cc(-c2ccc(Cl)c(F)c2)nc2cc(C(=O)N3CCN(c4cccc(C(=O)O[C@@H]5OC(C(=O)O)[C@@H](O)C(O)[C@@H]5O)n4)CC3(C)C)oc12 (stereo partly drawn) [Example I-253]", "IC50 [nM]": 9.5}
{"Compound": "CC[C@H](C(=O)N1CCN(C(=O)c2cc3nc(-c4ccc(F)cc4)cc(C4(C)CC4)c3o2)C(C)(C)C1)c1ccccc1 [Example I-47]", "IC50 [nM]": 78}
{"Compound": "CC(C)c1cc(-c2ccc(F)cc2)nc2cc(C(=O)N3CCN(C(=O)[C@H]4C[C@@](C)(O)C4)CC3(C)C)oc12 [Example I-136]", "IC50 [nM]": 7.4}
{"Compound": "CC1(c2cc(-c3ccc(F)cc3)nc3cc(C(=O)N4CCN(C(=O)C5C(C)(C)C5(C)C)CC4(C)C)oc23)CC1 [Example I-50]", "IC50 [nM]": 5.1}
{"Compound": "[2H]C([2H])([2H])N1CCN(C(=O)c2cc3nc(-c4ccc(Cl)c(F)c4)cc(C(C)(C)C)c3o2)C(C)(C)C1=O [Example I-237]", "IC50 [nM]": 2.4}
{"Compound": "Cc1cc(C(=O)N2CCN(C(=O)c3cc4nc(C5CCC(F)(F)CC5)cc(C(C)(C)C)c4o3)C(C)(C)C2=O)[nH]n1 [Example I-223]", "IC50 [nM]": 39}
{"Compound": "CCCC(CC)c1cc(-c2ccc(F)cc2)nc2cc(C(=O)N3CCNC(=O)C3(C)C)oc12 (stereo not drawn) [Example I-249]", "IC50 [nM]": 11}
{"Compound": "Cc1cc(-c2cc(C(C)(C)C)c3oc(C(=O)N4CCN(c5cn[nH]c5)C(=O)C4(C)C)cc3n2)ccc1Cl [Example I-275]", "IC50 [nM]": 20}
{"Compound": "CC1(c2cc(-c3ccc(F)cc3)nc3cc(C(=O)N4CCN(C(=O)[C@H]5CCC(=O)O5)CC4(C)C)oc23)CC1 [Example I-33]", "IC50 [nM]": 64}
{"Compound": "CC(C)c1cc(-c2ccc(F)cc2)nc2cc(C(=O)N3CCN(C(=O)[C@H](C)O)CC3(C)C)oc12 [Example I-15]", "IC50 [nM]": 190}
{"Compound": "CC(C)c1cc(-c2ccc(F)cc2)nc2cc(C(=O)N3CCN(C(=O)C4CC4(F)F)CC3(C)C)oc12 (stereo not drawn) [Example I-72]", "IC50 [nM]": 3.1}
{"Compound": "CC(C)c1cc(-c2ccc(F)cc2)nc2cc(C(=O)N3CCN(C(=O)OC(C)(C)C)CC3)oc12 [Example I-77]", "IC50 [nM]": 23000}
{"Compound": "CC1(C)CCC(c2cc(C(C)(C)C)c3oc(C(=O)N4CCNC(=O)C4(C)C)cc3n2)CC1 [Example I-217]", "IC50 [nM]": 22}
